Molecular target: AF9-DOT1L interaction (Homo sapiens)
Construct: human AF9 AHD domain (475–568); made in house; host or cells: E. coli BL21(DE3)
Sequence (P42568 475-568): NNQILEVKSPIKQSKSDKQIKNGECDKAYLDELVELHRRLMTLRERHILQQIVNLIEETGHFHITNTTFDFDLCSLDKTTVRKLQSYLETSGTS
Test: AlphaLisa assay, AF9-DOT1L interaction
Type: binding
Conditions: compound at 5 μM, read-out: % Inhibition at 5 μM against the AF9-DOT1L interaction
Measurement type: inhibition at 5 µM (%)
Write the number in % without appending the unit.

Examples from the recorded data:
| Compound structure string | Reading |
| --- | --- |
| N#Cc1ccc(-c2ccc3[nH]c(C(=O)NCC4CCNCC4)cc3c2)cc1F | 8 |
| O=C(NCC1CCNCC1)c1cc2ccc(-c3ccc(C(=O)N4CCCCC4)cc3)cc2s1 | 8 |
| N#Cc1ccc(-c2ccc3cc(C(=O)NCC4CCNCC4)oc3c2)cc1 | 15 |

Reported inhibition at 5 µM ( CC(C)(C)c1ccc(-c2ccc3sc(C(=O)NCC4CCNCC4)cc3c2)cc1 ) = 33

// O=C(NCC1CCNCC1)c1cc2ccc(-c3ccc(-c4ccsc4)cc3)cc2[nH]1 : inhibition at 5 µM value = 14
